Hey, just so you know, these numbers are from patent EP3730147A1.

Measured E (DG-6-P activity) accompanies every entry in the list below.
molecular target: rat liver glucose-6-phosphate dehydrogenase (DG-6-P) (Rattus norvegicus, UniProt P05370); construct: an additional enzyme purification procedure was performed; from tissue; host or cells: rat liver (5.6-fold purified enzyme preparation); test: Effect on DG-6-P activity in 5.6-fold purified rat liver enzyme; type: biochemical; details: 25 µM
Sequence (P05370 whole entry): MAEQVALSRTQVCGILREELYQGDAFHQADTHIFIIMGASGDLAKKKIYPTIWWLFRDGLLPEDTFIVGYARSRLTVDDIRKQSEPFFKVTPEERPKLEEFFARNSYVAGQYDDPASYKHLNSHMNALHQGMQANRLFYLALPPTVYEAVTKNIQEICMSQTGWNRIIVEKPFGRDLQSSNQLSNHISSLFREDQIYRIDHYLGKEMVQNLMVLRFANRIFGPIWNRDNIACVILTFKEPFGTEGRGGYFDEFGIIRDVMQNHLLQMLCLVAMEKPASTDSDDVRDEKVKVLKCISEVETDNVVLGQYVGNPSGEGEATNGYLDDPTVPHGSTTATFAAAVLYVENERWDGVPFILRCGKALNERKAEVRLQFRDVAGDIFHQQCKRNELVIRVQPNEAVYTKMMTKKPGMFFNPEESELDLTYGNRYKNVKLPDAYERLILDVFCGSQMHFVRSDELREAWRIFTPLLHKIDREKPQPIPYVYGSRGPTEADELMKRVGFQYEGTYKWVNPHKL
readout: E (DG-6-P activity)

INSERT INTO results (molecule, value_observed) VALUES
  ('C=C(C)[C@@H]1CC[C@]2(CO)CC[C@]3(C)[C@H](CC[C@@H]4[C@@]5(C)CC[C@H](O)C(C)(C)[C@@H]5CC[C@]43C)[C@@H]12 [Betulin]', '0,100±0,002'),
  ('CC1(C)CC[C@]23CC[C@]4(C)[C@H](CC[C@@H]5[C@@]6(C)CC[C@H](O)C(C)(C)[C@@H]6CC[C@]54C)[C@H]2[C@H]1OC3 [Allobetulin]', '0,103±0,002'),
  ('C=C(C)[C@@H]1CC[C@]2(C)CC[C@]3(C)[C@H](CC[C@@H]4[C@@]5(C)CC[C@H](O)C(C)(C)[C@@H]5CC[C@]43C)[C@@H]12 [Lupeol]', '0,113±0,009'),
  ('C=C(C)[C@@H]1CC[C@]2(COC(C)=O)CC[C@]3(C)[C@H](CC[C@@H]4[C@@]5(C)CC[C@H](OC(C)=O)C(C)(C)[C@@H]5CC[C@]43C)[C@@H]12 [3,28-betulin diacetate]', '0,111±0,008'),
  ('C=C(C)[C@@H]1CC[C@]2(C(=O)O)CC[C@]3(C)[C@H](CC[C@@H]4[C@@]5(C)CCC(=O)C(C)(C)[C@@H]5CC[C@]43C)[C@@H]12 [Betulonic acid]', '0,109±0,007');
